assayed_target: IGF-1R (Homo sapiens (Human), UniProt P08069)
Sequence (P08069 31-1367, species assumed): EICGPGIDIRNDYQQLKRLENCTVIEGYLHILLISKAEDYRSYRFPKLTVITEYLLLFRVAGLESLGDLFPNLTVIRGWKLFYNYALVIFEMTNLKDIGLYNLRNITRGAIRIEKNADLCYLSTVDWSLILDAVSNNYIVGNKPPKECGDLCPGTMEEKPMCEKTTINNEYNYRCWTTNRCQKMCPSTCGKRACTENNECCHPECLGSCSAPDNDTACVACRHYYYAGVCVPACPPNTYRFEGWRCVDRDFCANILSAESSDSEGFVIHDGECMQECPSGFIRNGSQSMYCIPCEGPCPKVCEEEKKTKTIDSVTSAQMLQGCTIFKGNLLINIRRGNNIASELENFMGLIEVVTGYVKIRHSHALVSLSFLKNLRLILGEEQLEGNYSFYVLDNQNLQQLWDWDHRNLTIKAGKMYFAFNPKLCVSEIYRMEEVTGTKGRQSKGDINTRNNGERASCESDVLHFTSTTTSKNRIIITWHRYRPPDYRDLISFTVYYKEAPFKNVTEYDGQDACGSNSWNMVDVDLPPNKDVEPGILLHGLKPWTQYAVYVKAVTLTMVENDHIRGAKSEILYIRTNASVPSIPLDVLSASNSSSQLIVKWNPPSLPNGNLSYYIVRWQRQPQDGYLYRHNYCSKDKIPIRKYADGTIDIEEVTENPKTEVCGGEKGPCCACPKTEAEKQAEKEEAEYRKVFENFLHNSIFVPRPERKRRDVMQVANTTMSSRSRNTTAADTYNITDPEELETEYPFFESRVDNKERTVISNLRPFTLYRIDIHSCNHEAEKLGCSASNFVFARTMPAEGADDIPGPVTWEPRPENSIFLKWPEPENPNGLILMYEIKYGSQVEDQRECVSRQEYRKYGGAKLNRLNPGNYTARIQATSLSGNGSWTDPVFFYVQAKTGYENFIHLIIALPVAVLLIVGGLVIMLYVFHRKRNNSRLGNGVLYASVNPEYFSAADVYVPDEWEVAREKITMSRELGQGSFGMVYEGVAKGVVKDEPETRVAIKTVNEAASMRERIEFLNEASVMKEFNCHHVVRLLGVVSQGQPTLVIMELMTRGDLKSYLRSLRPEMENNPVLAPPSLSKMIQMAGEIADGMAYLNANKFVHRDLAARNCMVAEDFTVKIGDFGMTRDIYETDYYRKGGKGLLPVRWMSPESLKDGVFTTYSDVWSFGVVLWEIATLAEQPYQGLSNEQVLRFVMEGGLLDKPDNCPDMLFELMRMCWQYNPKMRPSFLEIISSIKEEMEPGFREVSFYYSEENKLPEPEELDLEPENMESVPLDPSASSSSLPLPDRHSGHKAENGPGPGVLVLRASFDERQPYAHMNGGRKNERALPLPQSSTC
method_summary: Example B-2: IGF-1R Assay (PathHunter cell lines, EC80 agonist challenge)
Format: cell-based
study_conditions: read-out: IC50 (Biological Activity against IGF-1R)
Task for the reader: assign each of the following compounds its reported IC50.

Value sought for every listed compound: IC50.
1. COc1cc(Nc2nccc(Nc3cnc4ccc(Cl)nc4c3)n2)ccc1O[C@H]1C[C@@H](N(C)C)C1
2. CN(C)CC1COc2cc(Nc3nccc(Nc4cnc5ccccc5c4)n3)ccc2O1 (stereo not shown)

1. 0.5 to 2 µM
2. ≤ 0.5 µM

Value sought for every listed compound: IC50.
1. c1ccc2ncc(Nc3ccnc(Nc4ccc5ccn(CC6CCCC6)c5c4)n3)cc2c1
2. COc1cc(Nc2nccc(Nc3cnc4c(c3)OCCO4)n2)ccc1O[C@H]1C[C@@H](N(C)C)C1

["≤ 0.5 µM", "≤ 0.5 µM"]
